Source of measurements: patent US20250250357A1

- measurement-target: T1, human MSLN-R2-his protein (human, UniProt Q13421 391-486)
- T1 construct: it is put last here; also called human MSLN-R2 protein; hMSLN-R2-his; not shown: His tag
- T1 sequence (Q13421 other isoform, or with tags, fused parts or gaps): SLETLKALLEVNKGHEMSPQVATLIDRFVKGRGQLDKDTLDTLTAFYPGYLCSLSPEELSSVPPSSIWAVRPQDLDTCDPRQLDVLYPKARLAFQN
- experimental-protocol: ELISA on coated antigen, antibody 0.0002 nM
Items are presented alongside their recorded OD450.

{"columns": ["binder", "OD450 / OD"],
 "data": [
  ["S009-F7.26.15 (antibody, human IgG1, kappa, V domains shown, Human-murine chimeric antibody, human IgG1 heavy and kappa light constant regions) VH: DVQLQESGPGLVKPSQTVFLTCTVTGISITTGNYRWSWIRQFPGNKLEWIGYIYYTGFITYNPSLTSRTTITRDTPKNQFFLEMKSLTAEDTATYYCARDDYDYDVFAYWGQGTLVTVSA VL: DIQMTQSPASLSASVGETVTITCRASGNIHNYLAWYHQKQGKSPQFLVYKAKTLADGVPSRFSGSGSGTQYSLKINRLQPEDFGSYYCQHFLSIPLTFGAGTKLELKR", 0.05],
  ["S009-F7.66.12 (antibody, human IgG1, kappa, V domains shown, Human-murine chimeric antibody, human IgG1 heavy and kappa light constant regions) VH: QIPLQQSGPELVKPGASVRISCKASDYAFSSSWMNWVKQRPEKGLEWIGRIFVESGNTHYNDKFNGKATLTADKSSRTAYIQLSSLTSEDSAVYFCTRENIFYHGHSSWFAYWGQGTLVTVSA VL: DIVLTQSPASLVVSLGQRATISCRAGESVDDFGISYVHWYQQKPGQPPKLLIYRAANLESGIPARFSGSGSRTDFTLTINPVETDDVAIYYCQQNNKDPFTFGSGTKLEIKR", 0.27],
  ["S009-F7.23.19 (antibody, human IgG1, kappa, V domains shown, Human-murine chimeric antibody, human IgG1 heavy and kappa light constant regions) VH: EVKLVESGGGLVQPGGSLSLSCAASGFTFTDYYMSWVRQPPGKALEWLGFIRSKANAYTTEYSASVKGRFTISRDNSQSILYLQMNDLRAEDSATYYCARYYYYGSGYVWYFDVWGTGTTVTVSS VL: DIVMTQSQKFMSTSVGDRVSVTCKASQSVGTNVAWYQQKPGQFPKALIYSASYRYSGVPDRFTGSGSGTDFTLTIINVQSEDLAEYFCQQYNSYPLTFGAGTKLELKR", 0.14]
]}
